System: RARg:RXRa (NR concentration 270 nM, RXRa partner concentration 90 nM)
Assay: PBM binding z-score (relative to random genomic background probes); higher = stronger binding; sequences stand for … in GC…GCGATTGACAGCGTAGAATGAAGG
# Lookup of reported PBM binding z-score keyed by entry

>  <primary.sequence>
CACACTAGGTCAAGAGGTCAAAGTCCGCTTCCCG

>  <PBM binding z-score>
8.04

$$$$
>  <primary.sequence>
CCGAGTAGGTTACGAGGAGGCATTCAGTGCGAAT

>  <PBM binding z-score>
0.333

$$$$
>  <primary.sequence>
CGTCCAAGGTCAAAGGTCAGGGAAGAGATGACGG

>  <PBM binding z-score>
9.1

$$$$
>  <primary.sequence>
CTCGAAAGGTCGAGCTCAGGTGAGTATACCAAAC

>  <PBM binding z-score>
4.89

$$$$
>  <primary.sequence>
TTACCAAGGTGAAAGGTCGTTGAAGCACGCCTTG

>  <PBM binding z-score>
4.3

$$$$
>  <primary.sequence>
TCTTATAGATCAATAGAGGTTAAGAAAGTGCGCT

>  <PBM binding z-score>
1.04

$$$$
>  <primary.sequence>
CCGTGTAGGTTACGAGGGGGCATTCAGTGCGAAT

>  <PBM binding z-score>
3.76

$$$$
>  <primary.sequence>
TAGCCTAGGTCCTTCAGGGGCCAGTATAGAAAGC

>  <PBM binding z-score>
0.825

$$$$
>  <primary.sequence>
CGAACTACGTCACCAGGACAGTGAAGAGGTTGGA

>  <PBM binding z-score>
0.119

$$$$
>  <primary.sequence>
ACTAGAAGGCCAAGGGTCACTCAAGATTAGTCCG

>  <PBM binding z-score>
4.79

$$$$
>  <primary.sequence>
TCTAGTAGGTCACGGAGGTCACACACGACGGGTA

>  <PBM binding z-score>
7.29

$$$$
>  <primary.sequence>
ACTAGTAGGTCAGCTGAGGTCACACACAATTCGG

>  <PBM binding z-score>
6.45

$$$$
>  <primary.sequence>
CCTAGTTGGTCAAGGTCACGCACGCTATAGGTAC

>  <PBM binding z-score>
5.21

$$$$
>  <primary.sequence>
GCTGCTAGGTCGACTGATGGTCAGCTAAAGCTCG

>  <PBM binding z-score>
1.2

$$$$
